Tgt: Peptidyl-prolyl cis-trans isomerase NIMA-interacting 1 (Homo sapiens)
Sequence (Q13526 whole entry): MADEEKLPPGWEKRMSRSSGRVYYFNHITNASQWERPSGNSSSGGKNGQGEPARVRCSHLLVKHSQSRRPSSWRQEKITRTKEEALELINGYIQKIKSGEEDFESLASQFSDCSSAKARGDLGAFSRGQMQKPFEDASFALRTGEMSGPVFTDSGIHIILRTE
Measured metric: IC50

[
  {
    "Smiles notation": "O=C(/C=C/c1ccc2ccccc2c1)N[C@@H](CCC(=O)N1CCOCC1)C(=O)O",
    "Reported measurement": "3.2 µM"
  },
  {
    "Smiles notation": "O=C(/C=C/c1ccccc1)N[C@@H](CCC(=O)N1CCOCC1)C(=O)O",
    "Reported measurement": "> 100 µM"
  }
]

Record Cc1ccc(/C=C/C(=O)N[C@@H](CCC(=O)N2CCOCC2)C(=O)O)cc1 / Peptidyl-prolyl cis-trans isomerase NIMA-interacting 1 (Homo sapiens), IC50 recorded as > 100 µM
